# Subject Of Test: Histone-lysine N-methyltransferase SETD7 (Homo sapiens)
# Procedure Summary: Inhibition of human SET7 overexpressed in Escherichia coli BL21 (DE3) cells at 12.5 uM preincubated for 15 mins followed by addition of SAM as substrate and biotinylated Histone H3 (1-50) peptide measured after 30 mins by AlphaLISA assay relative to control
Readout: inhibition (%)

Cc1cnc(NC(=O)C2=C(O)c3ccccc3S(=O)(=O)N2C)s1
18
COc1cc(O)c(CC=C(C)C)c(O)c1C(=O)/C=C/c1ccc(O)cc1
9
CC(C)C[C@H](NC(=O)[C@H](Cc1ccccc1)NC(=O)c1cnccn1)B(O)O
18
O=c1c(O)c(-c2ccc(O)cc2O)oc2cc(O)cc(O)c12 [MORIN]
40
CCn1cc(C(=O)O)c(=O)c2cc(F)c(N3CCNC(C)C3)c(F)c21 (stereo not given)
19

(P) COC(=O)[C@H](Cc1ccccc1)NC(=O)[C@@H](N)CC(=O)O
(Q) CC(C)=CC[C@@H](O)C1=CC(=O)c2c(O)ccc(O)c2C1=O [SHIKONIN]
(R) O=c1c(-c2ccc(O)cc2)coc2cc(O)ccc12
Ask | # rank_down: sort by inhibition, max first Would you mind listing the labels in the order requested?
Reply | Q, P, R
(Q: 50%, P: 17%, R: 5%)

(I) O=C(N/N=C/c1ccc([N+](=O)[O-])o1)c1ccc(O)cc1
(II) COc1c(O)cc(O)c2c(=O)cc(-c3ccccc3)oc12
Ask | Higher inhibition between I and II ? # answer = label of selected item
Reply | II
(II: 19%, I: 8%)
